- Experiment summary: Thermodynamic aqueous solubility by HPLC (filtration method)
- Assay type: physicochemical
- Condition label: water, 25 °C, pH 1.8, water, thermodynamic from solid, at pH 1.8
- Description: The aqueous thermodynamic solubility of selected salt forms was measured using the filtration method as described in Example 10. The suspension was equilibrated at 25° C. for 24 hours then the pH was measured. […] Quantitation was by HPLC with reference to a standard solution of approximately 0.1 mg/mL in DMSO. […] The solubility was calculated using the peak areas determined by integration of the peak found at the same retention time as the principal peak in the standard injection.
Property measured: solubility at 24 h

>  <Compound>
O=C(NCc1cn(-c2ccc(-n3ccccc3=O)cc2)cn1)c1ccc(Cl)s1 [Mesylate Form A]

>  <Property measured>
solubility at 24 h

>  <Endpoint value>
5100 µg/mL

$$$$

----------
- Experiment summary: Log P and Log D determination (potentiometric titration, octanol:ISA water)
- Assay type: physicochemical
- Condition label: octanol/ionic-strength adjusted (ISA) water

>  <Compound>
O=C(NCc1cn(-c2ccc(-n3ccccc3=O)cc2)cn1)c1ccc(Cl)s1 [Mesylate Form A]

>  <logP>
2.25

$$$$

----------
Reported Aqueous solubility values are given for each entry in this list.
- Experiment summary: Thermodynamic aqueous solubility by HPLC (filtration method)
- Type: physicochemical
- Condition label: Table 8; filtration method, water, 25° C., 24 hours
Property measured: Aqueous solubility (µg/mL)

>  <Compound>
O=C(NCc1cn(-c2ccc(-n3ccccc3=O)cc2)cn1)c1ccc(Cl)s1 [Phosphate Form 2]

>  <Property measured>
Aqueous solubility

>  <Endpoint value>
4100

$$$$
>  <Compound>
O=C(NCc1cn(-c2ccc(-n3ccccc3=O)cc2)cn1)c1ccc(Cl)s1 [Phosphate Form 3]

>  <Property measured>
Aqueous solubility

>  <Endpoint value>
6900

$$$$
>  <Compound>
O=C(NCc1cn(-c2ccc(-n3ccccc3=O)cc2)cn1)c1ccc(Cl)s1 [1-Hydroxy-2-naphthoate Form 1]

>  <Property measured>
Aqueous solubility

>  <Endpoint value>
50

$$$$
>  <Compound>
O=C(NCc1cn(-c2ccc(-n3ccccc3=O)cc2)cn1)c1ccc(Cl)s1 [Mesylate Form A]

>  <Property measured>
Aqueous solubility

>  <Endpoint value>
5100

$$$$

----------
- Experiment summary: Thermodynamic aqueous solubility by HPLC (filtration method)
- Assay type: physicochemical
- Condition label: Table 8; pH of the solubility suspension

>  <Compound>
O=C(NCc1cn(-c2ccc(-n3ccccc3=O)cc2)cn1)c1ccc(Cl)s1 [1-Hydroxy-2-naphthoate Form 1]

>  <pH>
6.0

$$$$
>  <Compound>
O=C(NCc1cn(-c2ccc(-n3ccccc3=O)cc2)cn1)c1ccc(Cl)s1 [Mesylate Form A]

>  <pH>
1.8

$$$$
>  <Compound>
O=C(NCc1cn(-c2ccc(-n3ccccc3=O)cc2)cn1)c1ccc(Cl)s1 [Phosphate Form 3]

>  <pH>
2.2

$$$$
>  <Compound>
O=C(NCc1cn(-c2ccc(-n3ccccc3=O)cc2)cn1)c1ccc(Cl)s1 [Phosphate Form 2]

>  <pH>
2.0

$$$$

Where these numbers come from: patent US8530501B2
